- systemUnderTest: Muscarinic acetylcholine receptor M4 (Rattus norvegicus, UniProt P08485)
- Sequence (P08485 whole entry): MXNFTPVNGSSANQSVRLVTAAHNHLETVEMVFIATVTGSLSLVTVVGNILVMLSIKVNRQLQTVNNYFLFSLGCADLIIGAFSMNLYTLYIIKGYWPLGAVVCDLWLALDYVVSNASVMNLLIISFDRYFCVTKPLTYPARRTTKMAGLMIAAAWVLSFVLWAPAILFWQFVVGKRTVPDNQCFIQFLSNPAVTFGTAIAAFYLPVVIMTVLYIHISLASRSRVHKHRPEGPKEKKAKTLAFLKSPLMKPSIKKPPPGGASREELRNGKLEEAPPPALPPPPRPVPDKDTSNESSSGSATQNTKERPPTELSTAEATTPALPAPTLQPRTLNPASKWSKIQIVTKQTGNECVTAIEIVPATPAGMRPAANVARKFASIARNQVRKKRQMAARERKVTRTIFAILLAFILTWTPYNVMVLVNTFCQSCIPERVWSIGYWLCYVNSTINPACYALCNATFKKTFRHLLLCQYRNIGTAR
- assay: Inhibition of binding of [3H]N-Methyl-scopolamine to muscarinic acetylcholine receptor M4 of rat […] NG108-15 cells
- Format: cell-based
quantityKind: Ki (nM)
Express the result in nM but write the number alone.

* O=C1Nc2cccnc2N(C(=O)CN2CCN(Cc3ccccc3)CC2)c2ccccc21 | 220

INPUT: Tell me the measured Ki of `O=C1Nc2cccnc2N(C(=O)CN2CCN(CCCCN3C(=O)c4ccccc4C3=O)CC2)c2ccccc21` , please.
OUTPUT: 210

INPUT: Tell me the measured Ki of Cc1scc2c1N(C(=O)CN1CCN(C)CC1)c1ccccc1NC2=O [TELENZEPINE] , please.
OUTPUT: 17.4

INPUT: Tell me the measured Ki of `NCCNC(=O)c1ccc(CN2CCN(CC(=O)N3c4ccccc4C(=O)Nc4cccnc43)CC2)cc1` , please.
OUTPUT: 1040

INPUT: Tell me the measured Ki of `CC(=O)NCCN1CCN(CC(=O)N2c3ccccc3C(=O)Nc3cccnc32)CC1` , please.
OUTPUT: 2570

* * *

- systemUnderTest: Muscarinic acetylcholine receptor M3 (Rattus norvegicus)
- Sequence (P08483 whole entry): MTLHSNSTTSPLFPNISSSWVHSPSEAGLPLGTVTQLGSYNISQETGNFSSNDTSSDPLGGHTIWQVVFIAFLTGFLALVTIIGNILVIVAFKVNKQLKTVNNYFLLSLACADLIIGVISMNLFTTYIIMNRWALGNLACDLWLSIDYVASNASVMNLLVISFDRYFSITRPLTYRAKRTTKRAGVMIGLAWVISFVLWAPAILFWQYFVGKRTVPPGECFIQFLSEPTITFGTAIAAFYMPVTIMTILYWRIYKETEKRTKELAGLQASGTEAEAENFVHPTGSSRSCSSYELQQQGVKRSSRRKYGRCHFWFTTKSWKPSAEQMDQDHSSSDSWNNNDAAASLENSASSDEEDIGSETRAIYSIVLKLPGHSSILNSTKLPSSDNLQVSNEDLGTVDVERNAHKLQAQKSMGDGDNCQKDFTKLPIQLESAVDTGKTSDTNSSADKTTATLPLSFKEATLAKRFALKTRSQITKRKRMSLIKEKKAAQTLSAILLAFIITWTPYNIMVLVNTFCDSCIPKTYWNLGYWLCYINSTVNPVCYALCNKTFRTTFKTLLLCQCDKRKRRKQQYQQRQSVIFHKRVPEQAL
- assay: Inhibition of binding of [3H]N-methylscopolamine to muscarinic acetylcholine receptor M3 of transfected rat A9L cells.
- Assay type: cell-based
pKi: −log10 of the molar value.
quantityKind: pKi

- CC(=O)N1CCN(CC(=O)N2c3ccccc3C(=O)Nc3cccnc32)CC1: < 4.00

INPUT: Tell me the measured pKi of `O=C1Nc2cccnc2N(C(=O)CN2CCN(C(=S)Nc3ccccc3)CC2)c2ccccc21` , please.
OUTPUT: < 4.00

INPUT: Tell me the measured pKi of `CN1CCN(CC(=O)N2c3ccc(S(=O)(=O)NCCNC(=O)OC(C)(C)C)cc3C(=O)Nc3cccnc32)CC1` , please.
OUTPUT: < 4.52

INPUT: Tell me the measured pKi of `CS(=O)(=O)N1CCN(CC(=O)N2c3ccccc3C(=O)Nc3cccnc32)CC1` , please.
OUTPUT: < 4.00

INPUT: Tell me the measured pKi of `CN1CCN(CC(=O)N2c3ccc(S(=O)(=O)NCCN)cc3C(=O)Nc3cccnc32)CC1` , please.
OUTPUT: < 4.52

INPUT: Tell me the measured pKi of `CC(=O)NCCNS(=O)(=O)c1ccc2c(c1)C(=O)Nc1cccnc1N2C(=O)CN1CCN(C)CC1` , please.
OUTPUT: < 4.52

INPUT: Tell me the measured pKi of `O=C1Nc2cccnc2N(C(=O)CN2CCN(CCO)CC2)c2ccccc21` , please.
OUTPUT: 5.02

INPUT: Tell me the measured pKi of `CN1CCN(CC(=O)N2c3ccc(S(N)(=O)=O)cc3C(=O)Nc3cccnc32)CC1` , please.
OUTPUT: < 4.52

* * *

- systemUnderTest: Muscarinic acetylcholine receptor M1 (Rattus norvegicus)
- assay: Inhibition of binding of [3H]N-methylscopolamine to muscarinic acetylcholine receptor M1 of transfected rat A9L cells.
- Format: cell-based
quantityKind: log10 of Ki (log10 of the value in µM)
log10 Ki, µM

INPUT: Tell me the measured log10 of Ki of `NCCCCCN1CCN(CC(=O)N2c3ccccc3C(=O)Nc3cccnc32)CC1` , please.
OUTPUT: 0.07

INPUT: Tell me the measured log10 of Ki of `CC(=O)NCCCC(=O)NCCN1CCN(CC(=O)N2c3ccccc3C(=O)Nc3cccnc32)CC1` , please.
OUTPUT: 0.98

INPUT: Tell me the measured log10 of Ki of `CSc1ccc2c(c1)C(=O)Nc1cccnc1N2C(=O)CN1CCN(C)CC1` , please.
OUTPUT: 0.67

INPUT: Tell me the measured log10 of Ki of `NCCN1CCN(CC(=O)N2c3ccccc3C(=O)Nc3cccnc32)CC1` , please.
OUTPUT: 0.08

* * *

# pKi annotations
- systemUnderTest: Muscarinic acetylcholine receptor M1 (Rattus norvegicus, UniProt P08482)
- Sequence (P08482 whole entry): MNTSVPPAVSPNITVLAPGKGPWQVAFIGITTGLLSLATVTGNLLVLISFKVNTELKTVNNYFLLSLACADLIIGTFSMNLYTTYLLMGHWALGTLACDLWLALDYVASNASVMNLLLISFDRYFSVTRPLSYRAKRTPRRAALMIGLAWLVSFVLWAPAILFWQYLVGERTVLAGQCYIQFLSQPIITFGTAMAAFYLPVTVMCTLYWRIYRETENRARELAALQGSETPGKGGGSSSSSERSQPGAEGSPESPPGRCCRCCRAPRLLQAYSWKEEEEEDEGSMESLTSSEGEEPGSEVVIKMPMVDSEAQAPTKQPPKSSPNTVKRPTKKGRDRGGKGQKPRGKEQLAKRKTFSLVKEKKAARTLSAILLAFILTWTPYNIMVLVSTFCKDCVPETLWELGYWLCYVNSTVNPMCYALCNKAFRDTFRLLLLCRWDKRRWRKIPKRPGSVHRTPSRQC
- assay: Inhibition of binding of [3H]N-methylscopolamine to muscarinic acetylcholine receptor M1 of transfected rat A9L cells.
- Type: cell-based
# reply with the number alone; pKi is -log10 of concentration in mol/L

• CC(C)(C)OC(=O)NCCCCNC(=O)c1ccc(CN2CCN(CC(=O)N3c4ccccc4C(=O)Nc4cccnc43)CC2)cc1 = 5.77
• O=C1Nc2cccnc2N(C(=O)CN2CCN(CCCN3C(=O)c4ccccc4C3=O)CC2)c2ccccc21 = 5.74
• CC(C)(C)OC(=O)NCCCC(=O)NCCN1CCN(CC(=O)N2c3ccccc3C(=O)Nc3cccnc32)CC1 = 5.32
• O=C1Nc2cccnc2N(C(=O)CN2CCN(CCO)CC2)c2ccccc21 = 5.24
• NCCCCN1CCN(CC(=O)N2c3ccccc3C(=O)Nc3cccnc32)CC1 = 5.51
• NCCCN1CCN(CC(=O)N2c3ccccc3C(=O)Nc3cccnc32)CC1 = 5.41
• CC(=O)NCCC(=O)NCCN1CCN(CC(=O)N2c3ccccc3C(=O)Nc3cccnc32)CC1 = 4.40
• CC(=O)NCCN1CCN(CC(=O)N2c3ccccc3C(=O)Nc3cccnc32)CC1 = 6.17

INPUT: Fill in the recorded pKi for this compound, with Muscarinic acetylcholine receptor M1 (Rattus norvegicus, UniProt P08482) as test system: `O=C1Nc2cccnc2N(C(=O)CN2CCN(CCCCCN3C(=O)c4ccccc4C3=O)CC2)c2ccccc21`
OUTPUT: 7.22

INPUT: Fill in the recorded pKi for this compound, with Muscarinic acetylcholine receptor M1 (Rattus norvegicus, UniProt P08482) as test system: `CC(C)(C)OC(=O)NCCCCCCN1CCN(CC(=O)N2c3ccccc3C(=O)Nc3cccnc32)CC1`
OUTPUT: 7.43

INPUT: Fill in the recorded pKi for this compound, with Muscarinic acetylcholine receptor M1 (Rattus norvegicus, UniProt P08482) as test system: `CNC(=O)c1ccc(CN2CCN(CC(=O)N3c4ccccc4C(=O)Nc4cccnc43)CC2)cc1`
OUTPUT: 5.55

INPUT: Fill in the recorded pKi for this compound, with Muscarinic acetylcholine receptor M1 (Rattus norvegicus, UniProt P08482) as test system: `C#CCN1CCN(CC(=O)N2c3ccccc3C(=O)Nc3cccnc32)CC1`
OUTPUT: 5.78

* * *

- systemUnderTest: UniProtKB P08482
- assay: Inhibition of binding of [3H]N-methylscopolamine to muscarinic acetylcholine receptor M1 of transfected rat A9L cells.
- Assay type: cell-based
pKi: −log10 of the molar value.
quantityKind: pKi

Consider the worked cases shown below.
• CN1CCN(CC(=O)N2c3ccc(S(=O)(=O)NCCNC(=O)OC(C)(C)C)cc3C(=O)Nc3cccnc32)CC1 = < 4.52
• CC(=O)N1CCN(CC(=O)N2c3ccccc3C(=O)Nc3cccnc32)CC1 = < 4.00
• CC(=O)NCCNS(=O)(=O)c1ccc2c(c1)C(=O)Nc1cccnc1N2C(=O)CN1CCN(C)CC1 = < 4.52
• CN1CCN(CC(=O)N2c3ccc(S(=O)(=O)NCCN)cc3C(=O)Nc3cccnc32)CC1 = < 4.52
• O=C1Nc2cccnc2N(C(=O)CN2CCN(C(=S)Nc3ccccc3)CC2)c2ccccc21 = < 4.00
• CS(=O)(=O)N1CCN(CC(=O)N2c3ccccc3C(=O)Nc3cccnc32)CC1 = < 4.00
• CN1CCN(CC(=O)N2c3ccc(S(N)(=O)=O)cc3C(=O)Nc3cccnc32)CC1 = < 4.52

For the next question, use this compound.
INPUT: Fill in the recorded pKi for this compound, with UniProtKB P08482 as test system: `O=C1Nc2cccnc2N(C(=O)CN2CCN(C(=O)c3ccccc3)CC2)c2ccccc21`
OUTPUT: < 4.00
